Values were extracted from patent US9233982B2.

// values below are reported IC50
- targetOrSystem: BACE-1 (Homo sapiens, UniProt P56817)
- Sequence (P56817 46-501): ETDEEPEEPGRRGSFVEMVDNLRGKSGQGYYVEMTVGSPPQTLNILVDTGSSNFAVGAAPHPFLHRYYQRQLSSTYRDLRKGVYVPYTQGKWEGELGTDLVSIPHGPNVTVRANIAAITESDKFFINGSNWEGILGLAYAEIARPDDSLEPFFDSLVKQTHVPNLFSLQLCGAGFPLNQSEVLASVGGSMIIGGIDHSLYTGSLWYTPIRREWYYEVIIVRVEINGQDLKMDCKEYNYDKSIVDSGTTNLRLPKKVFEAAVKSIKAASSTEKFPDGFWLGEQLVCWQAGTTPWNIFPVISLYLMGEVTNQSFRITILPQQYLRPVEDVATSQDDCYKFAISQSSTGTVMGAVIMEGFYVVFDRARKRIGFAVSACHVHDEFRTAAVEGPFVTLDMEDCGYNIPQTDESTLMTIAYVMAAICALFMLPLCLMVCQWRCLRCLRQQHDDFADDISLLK
- assayExplanation: LanthaScreen BACE1 biochemical assay (TR-FRET)
Where a name gives a salt, the structure may show the parent alone.

The cases that follow already have their IC50 on record.
| molecule | targetOrSystem | IC50 |
| --- | --- | --- |
| COc1ccc(-c2cc3c(s2)CCCC32CCSC(N)=N2)cn1 (stereo not drawn) | BACE-1 (Homo sapiens, UniProt P56817) | 5 to 65 µM |
| NC1=NC2(CCCc3sc(-c4cccc(OCc5ccccc5)c4)cc32)CCS1 (stereo not drawn) | BACE-1 (Homo sapiens, UniProt P56817) | 1 to 5 µM |
| N#Cc1cccc(-c2cc3c(s2)CCCC32CCSC(N)=N2)c1 (stereo not drawn) [Example 1, Formate Salt] | BACE-1 (Homo sapiens, UniProt P56817) | 1 to 5 µM |

Next up:
The value of IC50 measured for the molecule NC1=NC2(CCCc3sc(-c4ccc(-c5ccccc5)cc4)cc32)CCS1 (stereo not drawn) turned out to be 1 to 5 µM

====

- targetOrSystem: BACE-1 (Homo sapiens, UniProt P56817)
- assayExplanation: LanthaScreen BACE1 biochemical assay (TR-FRET)
// values below are reported IC50

| compound | targetOrSystem | IC50 |
| --- | --- | --- |
| CC1(C)CCc2sc(-c3cccc(C(F)(F)F)c3)cc2C12CCSC(N)=N2 (stereo not drawn) | BACE-1 (Homo sapiens, UniProt P56817) | 5 to 65 µM |
| N#Cc1cccc(-c2cc3c(s2)CCC(Cc2ccccc2)C32CCSC(N)=N2)c1 (racemic) | BACE-1 (Homo sapiens, UniProt P56817) | 5 to 65 µM |

With BACE-1 (Homo sapiens, UniProt P56817) as the test system, COc1ncc(-c2cc3c(s2)CCCC32CCSC(N)=N2)cc1C#N (stereo not drawn) showed IC50 of 5 to 65 µM

====

// values below are reported EC50
- targetOrSystem: BACE-1 (Homo sapiens)
- assayExplanation: HTRF cell based assay, Aβ1-40 peptide secreted by recombinant HEK293 cells
- experimentalParameters: Aβ1-40 secretion, recombinant HEK293 cells producing APP, overnight treatment; read-out: Cellular assay EC50 Ranges
Counter-ions that a name gives are not always drawn.

The cases that follow already have their EC50 on record.
| compound | targetOrSystem | EC50 |
| --- | --- | --- |
| CN1C(=O)C2(CCCc3sc(-c4cccc(C#N)c4)cc32)N=C1N (stereo not shown) [Example 49] | BACE-1 (Homo sapiens) | ≤ 1 µM |
| COc1cccc(-c2cccc(-c3cc4c(s3)CC(C)(C)CC43CCSC(N)=N3)c2)c1 (stereo not shown) [Example 41, Formate Salt] | BACE-1 (Homo sapiens) | 5 to 50 µM |
| COCc1cccc(-c2cc3c(s2)CCCC32CCSC(N)=N2)c1 (stereo not shown) [Example 23] | BACE-1 (Homo sapiens) | 1 to 5 µM |
| CC(C)c1cccc(-c2cc3c(s2)CCCC32CCSC(N)=N2)c1 (stereo not shown) [Example 27] | BACE-1 (Homo sapiens) | 5 to 50 µM |
| COc1ccc(-c2cc3c(s2)CCCC32CCSC(N)=N2)cn1 (stereo not shown) [Example 5] | BACE-1 (Homo sapiens) | 5 to 50 µM |

The value of EC50 measured for the compound NC1=NC2(CCCc3sc(-c4ccc5c(c4)CCO5)cc32)CCS1 (stereo not shown) [Example 6] turned out to be 5 to 50 µM

The value of EC50 measured for the compound COc1ccc(-c2cccc(-c3cc4c(s3)CC(c3ccccc3)CC43CCSC(N)=N3)c2)cc1 (racemic) [Example 44] turned out to be 5 to 50 µM
